Measured values drawn from patent US20050267020A1 for this set.

Target: T1, HLA-A*0201 (human)
T1 construct: MHC class I molecule on TAP-deficient T2 cells; stabilised at the surface by the added peptide and detected with mAb BB7.2
Assay: HLA-A*0201 stabilisation on T2 cells, flow cytometry with BB7.2; ratio to reference peptide HIVpol 589
Measurement Name: Relative affinity
Quick one: just the number, no unit, thanks!

Example entries and their recorded answers appear below.
| Binder | Relative affinity |
| --- | --- |
| YLGYPVTNA [HSP 134 (YLGYPVTNA)] | 2.5 |
| LMGDKSENV [HSP 380 (LMGDKSENV)] | 2.5 |
| YLGYPVTNAV (also called HSPI34(10)) [HSP 134(10) (YLGYPVTNAV)] | 0.6 |
| LLDVAPLSL [HSP 393 (LLDVAPLSL)] | 0.4 |

Lab book: Relative affinity of LLLLDVAPL [HSP 391 (LLLLDVAPL)] noted as 0.5

// recorded Relative affinity for SLFEGIDFYT [HSP 286 (SLFEGIDFYT)] : 0.25
